These data points were gathered from ChEMBL document CHEMBL3351655.

- subject.of.test: Adenosine receptors; A1 & A3 (Homo sapiens) (UniProt P30542+P0DMS8)
- Sequence (P0DMS8 whole entry, looked up): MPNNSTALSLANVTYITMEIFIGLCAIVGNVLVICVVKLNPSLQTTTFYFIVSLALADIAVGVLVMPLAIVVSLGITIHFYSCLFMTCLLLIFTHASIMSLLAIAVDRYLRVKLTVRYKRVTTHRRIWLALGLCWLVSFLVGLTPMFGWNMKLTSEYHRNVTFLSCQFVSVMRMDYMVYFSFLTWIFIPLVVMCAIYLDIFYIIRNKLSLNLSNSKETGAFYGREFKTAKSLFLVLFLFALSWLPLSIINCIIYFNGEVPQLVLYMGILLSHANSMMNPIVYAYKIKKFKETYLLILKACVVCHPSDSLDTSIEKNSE
- Sequence (P30542 whole entry, looked up): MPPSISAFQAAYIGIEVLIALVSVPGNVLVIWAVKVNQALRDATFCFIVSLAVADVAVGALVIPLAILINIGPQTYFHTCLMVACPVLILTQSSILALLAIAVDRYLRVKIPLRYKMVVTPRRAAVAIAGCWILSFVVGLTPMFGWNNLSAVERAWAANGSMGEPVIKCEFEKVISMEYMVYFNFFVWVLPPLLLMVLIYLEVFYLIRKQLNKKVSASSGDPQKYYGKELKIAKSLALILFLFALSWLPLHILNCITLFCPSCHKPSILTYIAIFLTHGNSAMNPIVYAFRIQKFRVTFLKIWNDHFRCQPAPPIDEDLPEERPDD
- procedure.text: Selectivity ratio of Ki for human adenosine A1 receptor expressed in CHO cells to Ki for human adenosine A3 receptor expressed in CHO cells
- Assay type: cell-based
Category scheme (Ratio Ki): lower segment: < 1; middle segment: ≥ 1 and < 4; upper segment: ≥ 4

Exercise: Lab note: sort "CNc1ncc(C(=O)O)c2nc(-c3ccco3)nn12" into the matching Ratio Ki band.
Key: upper segment

Exercise: Which class is correct for the following compound? "O=C(O)c1cnc(NCc2ccc(F)cc2)n2nc(-c3ccco3)nc12"
Key: upper segment

Exercise: Using the reported Ratio Ki, which band applies to "CCOC(=O)c1cnc(NC(=O)Cc2ccccc2)n2nc(-c3ccco3)nc12" ?
Key: upper segment

Exercise: Entry "O=C(O)c1cnc(NCc2ccc(C(F)(F)F)cc2)n2nc(-c3ccco3)nc12" belongs to which category?
Key: upper segment

Exercise: Exam item: assign "CNC(=O)c1cnc(NC(=O)Nc2ccccc2)n2nc(-c3ccco3)nc12" to the correct category.
Key: lower segment

Exercise: Entry "CCOC(=O)c1cnc(NC(=O)Nc2ccccc2)n2nc(-c3ccco3)nc12" belongs to which category?
Key: lower segment

Exercise: Place this compound in its band: "O=C(O)c1cnc(NC(c2ccccc2)c2ccccc2)n2nc(-c3ccco3)nc12"
Key: middle segment

Exercise: Each compound maps to one class by Ratio Ki. Which class for "Nc1ncc(C(=O)NCCc2ccccc2)c2nc(-c3ccco3)nn12" ?
Key: lower segment

Exercise: Please classify: "O=C(Nc1ccccc1)Nc1ncc(C(=O)NCCc2ccccc2)c2nc(-c3ccco3)nn12"
Key: lower segment

Exercise: # bin label for "COc1ccc(CNc2ncc(C(=O)O)c3nc(-c4ccco4)nn23)cc1OC"
Key: upper segment

Exercise: Dear colleague, I would appreciate it if you could identify the bin for "CCOC(=O)c1cnc(N2CCOCC2)n2nc(-c3ccco3)nc12" and reply at your convenience.
Key: upper segment

Exercise: // return the class label for "COc1ccc(CNc2ncc(C(=O)NCCc3ccccc3)c3nc(-c4ccco4)nn23)cc1OC"
Key: upper segment

Exercise: Which of the defined bands does the recorded Ratio Ki of "CCOC(=O)c1cnc(NCc2ccc(OC)c(OC)c2)n2nc(-c3ccco3)nc12" sit within?
Key: upper segment

Exercise: Which Ratio Ki band matches "CCOC(=O)c1cnc(NCc2ccc(Cl)cc2)n2nc(-c3ccco3)nc12" ?
Key: upper segment

Exercise: Hi, small favor: classify "CCCCCNc1ncc(C(=O)OCC)c2nc(-c3ccco3)nn12" by its Ratio Ki when you get a moment.
Key: upper segment

Exercise: Form field 'band' for "Cc1ccc(CNc2ncc(C(=O)O)c3nc(-c4ccco4)nn23)cc1"
Key: middle segment

Exercise: Pick a category. Item: "O=C(O)c1cnc(NCc2ccc(Cl)cc2)n2nc(-c3ccco3)nc12"
Key: upper segment

Exercise: Category of "CCOC(=O)c1cnc(NCC(C)C)n2nc(-c3ccco3)nc12" :
Key: middle segment

Exercise: Please let me know in which category the item CCCCC(CC)CNc1ncc(C(=O)O)c2nc(-c3ccco3)nn12 (configuration not stated) belongs.
Key: lower segment

Exercise: Dear colleague, I would appreciate it if you could identify the bin for "CCOC(=O)c1cnc(N2CCCC2)n2nc(-c3ccco3)nc12" and reply at your convenience.
Key: upper segment

Exercise: Dear colleague, I would appreciate it if you could identify the bin for "O=C(O)c1cnc(NC2CCCC2)n2nc(-c3ccco3)nc12" and reply at your convenience.
Key: lower segment

Exercise: Which category fits this record: "O=C(Nc1ncc(C(=O)NCCc2ccccc2)c2nc(-c3ccco3)nn12)NC1CCCCC1"
Key: upper segment

Exercise: Lab log: "CCOC(=O)c1cnc(NCc2ccc(F)cc2)n2nc(-c3ccco3)nc12" — assign Ratio Ki category
Key: upper segment

Exercise: # bin lookup: classify "CCOC(=O)c1cnc(NC(c2ccccc2)c2ccccc2)n2nc(-c3ccco3)nc12" by its Ratio Ki
Key: middle segment

Exercise: Tag the class for "CCOC(=O)c1cnc(SC)n2nc(-c3ccco3)nc12"
Key: middle segment
